FYI, the data here is from patent US9409952B2.

testMethodNotes: Metabolic stability in human hepatic microsome
Assay type: in vitro ADME
conditionDescription: human, microsomes, pH 7.4, CL NADPH(+)
Positions of bridges follow the written chain, without caps; N, C: chain ends. Non-standard residues stand in square brackets, D forms with d. Residues, ends and D or L forms follow the SMILES beside them. *: point of attachment. NMeF = CN[C@@H](Cc1ccccc1)C(=O)O; NMeI = CC[C@H](C)[C@H](NC)C(=O)O; NMeL = CN[C@@H](CC(C)C)C(=O)O; NMeV = CN[C@H](C(=O)O)C(C)C; NMeA = CN[C@@H](C)C(=O)O; Piperidide = C1CCN(*)CC1; dNMeA = CN[C@H](C)C(=O)O; Sar = CNCC(=O)O
Exercise: for every item that follows, state its recorded microsomal CLint at 1 uM.
Numbers only, in µL/min/mg.

>>> experimentalresult("CC[C@H](C)[C@H]1C(=O)N[C@@H](CC(C)C)C(=O)NCC(=O)N(C)[C@@H](CC(C)C)C(=O)N[C@@H](Cc2ccccc2)C(=O)N[C@@H]([C@@H](C)O)C(=O)N(C)[C@@H](C)C(=O)N[C@H](C(=O)N2CCCCC2)CC(=O)N(C)[C@@H](C)C(=O)N[C@@H](Cc2ccccc2)C(=O)N(C)[C@@H](C(C)C)C(=O)N[C@@H](CC(C)C)C(=O)N1C [DP-89] ([NMeA]F[NMeV]L[NMeI]LG[NMeL]FT[NMeA]D-Piperidide; lactam N-12)")
58
>>> experimentalresult("CC[C@H](C)[C@H]1C(=O)NCC(=O)N(C)[C@@H](Cc2ccccc2)C(=O)N(C)[C@@H](Cc2ccccc2)C(=O)N(C)[C@@H](CC(C)C)C(=O)N(C)[C@@H](CC(C)C)C(=O)N[C@H](C(=O)N2CCCCC2)CC(=O)N(C)[C@H](C)C(=O)N[C@@H]([C@@H](C)O)C(=O)N(C)[C@@H](C)C(=O)N1C [DP-74] ([dNMeA]T[NMeA][NMeI]G[NMeF][NMeF][NMeL][NMeL]D-Piperidide; lactam N-10)")
118

Turning now to a further compound:
[in] Please look up its microsomal CLint at 1 uM: CC[C@H](C)[C@H]1C(=O)N[C@@H](C)C(=O)N(C)[C@@H](CC(C)C)C(=O)N(C)[C@@H](Cc2ccccc2)C(=O)N[C@@H]([C@@H](C)O)C(=O)N(C)[C@@H](C)C(=O)N(C)[C@@H](CC(C)C)C(=O)N(C)[C@@H](Cc2ccccc2)C(=O)N[C@H](C(=O)N(C)[C@@H](Cc2ccccc2)C(=O)N[C@@H](C)C(=O)N2CCCCC2)CC(=O)N(C)CC(=O)N(C)[C@@H](CC(C)C)C(=O)N1C [DP-284] ([Sar][NMeL][NMeI]A[NMeL][NMeF]T[NMeA][NMeL][NMeF]D[NMeF]A-Piperidide; lactam N-11)
[out] 11

----------
testMethodNotes: Mouse PK test of peptides (intravenous and oral administration)
conditionDescription: male, C57BL/6J, in vivo, po, 20 mg/kg
Positions of bridges follow the written chain, without caps; N, C: chain ends. Non-standard residues stand in square brackets, D forms with d. Residues, ends and D or L forms follow the SMILES beside them. *: point of attachment. NMeF = CN[C@@H](Cc1ccccc1)C(=O)O; NMeI = CC[C@H](C)[C@H](NC)C(=O)O; NMeL = CN[C@@H](CC(C)C)C(=O)O; NMeA = CN[C@@H](C)C(=O)O; Piperidide = C1CCN(*)CC1; Sar = CNCC(=O)O; tBu = CC(C)(C)*
propertyLabel: Cmax (ng/mL)
One number for each entry, in ng/mL.

>>> experimentalresult("CC(C)C[C@@H]1NC(=O)[C@H](Cc2ccccc2)N(C)C(=O)[C@H](Cc2ccccc2)N(C)C(=O)[C@H](CC(C)C)NC(=O)[C@H](C)N(C)C(=O)[C@H]([C@@H](C)O)NC(=O)[C@H](C)N(C)C(=O)C[C@@H](C(=O)N2CCCCC2)NC(=O)[C@H](CC(C)C)N(C)C1=O [DP-125] ([NMeA]T[NMeA]L[NMeF][NMeF]L[NMeL]D-Piperidide; lactam N-9)")
3090

Turning now to a further compound:
[in] Please look up its Cmax: CC[C@H](C)[C@H]1C(=O)N[C@H](C(=O)N2CCCCC2)CC(=O)N[C@H](C(C)C)C(=O)N(C)[C@@H](Cc2ccccc2)C(=O)N(C)[C@@H](CC(C)C)C(=O)N[C@@H]([C@@H](C)O)C(=O)N(C)CC(=O)N(C)[C@@H](CC(C)C)C(=O)N[C@@H](COC(C)(C)C)C(=O)N1C [DP-265] ([dV][NMeF][NMeL]T[Sar][NMeL]S(tBu)[NMeI]D-Piperidide; lactam N-9)
[out] 2850

----------
testMethodNotes: Metabolic stability in human hepatic microsome
Format: in vitro ADME
conditionDescription: microsomes, pH 7.4; human hepatic microsome, NADPH(+); read-out: CL NADPH(+)
Starred links: 1 amine or outer side, 2 acyl side, 3 side chain; linkers in the order of their positions; H or OH if unused. Positions of bridges follow the written chain, without caps; N, C: chain ends. Non-standard residues stand in square brackets, D forms with d. Residues, ends and D or L forms follow the SMILES beside them. *: point of attachment. X2 = O=C(C[C@H](N[*:1])C(F)(F)F)[*:2]; NMeF = CN[C@@H](Cc1ccccc1)C(=O)O; NMeβAla = CN(CCC(=O)[*:2])[*:1]; NMeL = CN[C@@H](CC(C)C)C(=O)O; NMeV = CN[C@H](C(=O)O)C(C)C; NMeS = CN[C@@H](CO)C(=O)O; NMeA = CN[C@@H](C)C(=O)O; Piperidide = C1CCN(*)CC1; Sar = CNCC(=O)O
API: label(entry) gives t if the entry's microsomal CLint at 1 uM is strictly smaller than 30 µL/min/mg; on equality or larger values it gives f.

>>> classname("CC[C@H](C)[C@@H]1NC(=O)[C@H](Cc2ccccc2)NC(=O)[C@H](Cc2ccccc2)N(C)C(=O)CCN(C)C(=O)C[C@@H](C(=O)N2CCCCC2)NC(=O)[C@H](C)NC(=O)[C@H](CC(C)C)N(C)C(=O)[C@H](CC(C)C)N(C)C(=O)CN(C)C(=O)[C@H]([C@@H](C)O)NC(=O)[C@H](C(C)C)N(C)C(=O)[C@@H]2CCCN2C1=O [DP-134] ([NMeβAla][NMeF]FIP[NMeV]T[Sar][NMeL][NMeL]AD-Piperidide; lactam N-12)")
"t"
>>> classname("CC(C)C[C@H]1C(=O)N[C@@H](C(C)C)C(=O)N(C)[C@@H](Cc2ccccc2)C(=O)N(C)[C@@H](C)C(=O)N[C@@H](Cc2ccccc2)C(=O)N[C@H](C(=O)N(C)[C@@H](Cc2ccccc2)C(=O)N[C@@H](C)C(=O)N2CCCCC2)CC(=O)N(C)CCC(=O)N[C@@H]([C@@H](C)O)C(=O)N(C)CC(=O)N1C [DP-200] ([NMeβAla]T[Sar][NMeL]V[NMeF][NMeA]FD[NMeF]A-Piperidide; lactam N-9)")
"f"
>>> classname("CC(C)C[C@@H]1NC(=O)[C@H](CO)N(C)C(=O)C[C@@H](C(F)(F)F)NC(=O)[C@H](CC(C)C)N(C)C(=O)[C@H](CC(C)C)N(C)C(=O)[C@@H](C)NC(=O)[C@H](C)NC(=O)[C@H](CC(C)C)N(C)C(=O)[C@H](CC(C)C)NC(=O)[C@H](CC(C)C)N(C)C(=O)CN(C)C1=O [DP-657] (cyclo(A[dA][NMeL][NMeL][X2][NMeS]L[Sar][NMeL]L[NMeL]))")
"f"

[in] Is it true that microsomal CLint at 1 uM reported for CC(C)C[C@H]1C(=O)N(C)[C@@H](C)C(=O)N[C@@H](C(C)C)C(=O)N[C@H](C(=O)N(C)[C@@H](Cc2ccccc2)C(=O)N[C@@H](C)C(=O)N2CCCCC2)CC(=O)N(C)CCC(=O)N(C)[C@@H](C(C)C)C(=O)N(C)[C@@H](C)C(=O)N[C@@H](Cc2ccccc2)C(=O)N[C@@H]([C@@H](C)O)C(=O)N(C)[C@@H](C)C(=O)N1C [DP-448] ([NMeβAla][NMeV][NMeA]FT[NMeA][NMeL][NMeA]VD[NMeF]A-Piperidide; lactam N-10) is less than 30 µL/min/mg?
[out] t

----------
Exercise: for every item that follows, state its recorded Papp at 18 hours, 50 µM.
testMethodNotes: PAMPA (parallel artificial membrane permeability assay)
Assay type: in vitro ADME
conditionDescription: PAMPA; membrane permeation rate (Pe); 50 mM MOPSO buffer pH 6.5 with 5.0% glycocholic acid, 37° C., 18 hours; read-out: iPAMPA Pe
Starred links: 1 amine or outer side, 2 acyl side, 3 side chain; linkers in the order of their positions; H or OH if unused. Positions of bridges follow the written chain, without caps; N, C: chain ends. Non-standard residues stand in square brackets, D forms with d. Residues, ends and D or L forms follow the SMILES beside them. *: point of attachment. Tyr(3-F) = N[C@@H](Cc1ccc(O)c(F)c1)C(=O)O; NMeF = CN[C@@H](Cc1ccccc1)C(=O)O; NMeβAla = CN(CCC(=O)[*:2])[*:1]; NMeL = CN[C@@H](CC(C)C)C(=O)O; NMeA = CN[C@@H](C)C(=O)O; Piperidide = C1CCN(*)CC1; dNMeA = CN[C@H](C)C(=O)O; Sar = CNCC(=O)O; tBu = CC(C)(C)*
One number for each entry, in ×10⁻⁶ cm/s.

>>> experimentalresult("CC(C)C[C@@H]1NC(=O)[C@H](CC(C)C)N(C)C(=O)[C@H](C)N(C)C(=O)[C@@H](C(C)C)NC(=O)C[C@@H](C(=O)N2CCCCC2)NC(=O)[C@H]([C@@H](C)O)NC(=O)[C@H](C)N(C)C(=O)[C@H](C)N(C)C(=O)[C@H](CC(C)C)N(C)C(=O)[C@H](Cc2ccc(O)c(F)c2)NC(=O)[C@H](Cc2ccccc2)N(C)C1=O [DP-619] ([dV][NMeA][NMeL]L[NMeF][Tyr(3-F)][NMeL][NMeA][NMeA]TD-Piperidide; lactam N-11)")
12

Give Papp at 18 hours, 50 µM for all compounds that follow.
1. CC(C)C[C@H]1C(=O)N[C@@H](COC(C)(C)C)C(=O)N(C)[C@@H](Cc2ccccc2)C(=O)N(C)[C@@H](CC(C)C)C(=O)N[C@H](C(=O)N2CCCCC2)CC(=O)N(C)CC(=O)N[C@@H]([C@@H](C)O)C(=O)N1C [DP-743] ([Sar]T[NMeL]S(tBu)[NMeF][NMeL]D-Piperidide; lactam N-7)
2. CC(C)C[C@@H]1NC(=O)C[C@@H](C(=O)N2CCCCC2)NC(=O)[C@H](CC(C)C)N(C)C(=O)[C@H](CC(C)C)NC(=O)[C@H](CC(C)C)N(C)C(=O)[C@H]([C@@H](C)O)NC(=O)CN(C)C1=O [DP-726] (L[Sar]T[NMeL]L[NMeL]D-Piperidide; lactam N-7)
3. CC[C@H](C)[C@@H]1NC(=O)[C@H](CC(C)C)N(C)C(=O)[C@H](CC(C)C)N(C)C(=O)CCN(C)C(=O)C[C@@H](C(=O)N2CCCCC2)NC(=O)[C@H](CC(C)C)N(C)C(=O)[C@H](CC(C)C)N(C)C(=O)[C@H](Cc2ccccc2)N(C)C(=O)[C@H]([C@@H](C)O)NC(=O)[C@H](Cc2ccccc2)N(C)C1=O [DP-429] ([NMeβAla][NMeL][NMeL]I[NMeF]T[NMeF][NMeL][NMeL]D-Piperidide; lactam N-10)
4. CC(C)[C@@H]1NC(=O)[C@H](C)N(C)C(=O)[C@@H](C)N(C)C(=O)C[C@@H](C(=O)N(C)[C@@H](Cc2ccccc2)C(=O)N(C)[C@@H](Cc2ccccc2)C(=O)N[C@@H](C)C(=O)N2CCCCC2)NC(=O)[C@H](C)N(C)C(=O)[C@H](C)N(C)C(=O)[C@H]([C@@H](C)O)NC(=O)[C@H](C)N(C)C(=O)[C@H](Cc2ccccc2)N(C)C(=O)[C@H](C)N(C)C1=O [DP-509] ([dNMeA][NMeA]V[NMeA][NMeF][NMeA]T[NMeA][NMeA]D[NMeF][NMeF]A-Piperidide; lactam N-10)

[out]
1. 16
2. 17
3. 15
4. 5.1
